- Target Under Test: T1, recombinant human DLL3 (human, UniProt Q9NYJ7 27-492)
- T1 sequence: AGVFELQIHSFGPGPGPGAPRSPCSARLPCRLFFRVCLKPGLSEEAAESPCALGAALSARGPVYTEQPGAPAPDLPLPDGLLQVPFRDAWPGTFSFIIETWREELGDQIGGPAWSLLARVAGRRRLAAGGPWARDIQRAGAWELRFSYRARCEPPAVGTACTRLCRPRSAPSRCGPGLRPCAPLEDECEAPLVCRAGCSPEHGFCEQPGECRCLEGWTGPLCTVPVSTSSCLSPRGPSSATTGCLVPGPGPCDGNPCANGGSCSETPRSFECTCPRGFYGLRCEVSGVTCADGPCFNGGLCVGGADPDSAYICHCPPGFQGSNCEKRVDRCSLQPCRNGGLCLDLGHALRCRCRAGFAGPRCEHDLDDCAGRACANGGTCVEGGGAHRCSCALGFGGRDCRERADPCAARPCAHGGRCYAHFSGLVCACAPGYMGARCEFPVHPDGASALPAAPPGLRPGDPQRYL
- Protocol Description: Octet binning on SA sensor; Antibody A (biotinylated, loaded first): DL312-SG1; then 20 nM human DLL3, then 80 nM Antibody B
- Method: Octet (registered trademark) RED384 (Fortebio) was used to perform competitive binding assays by epitope binning for a panel of antibodies. […] Raw data was processed using ForteBio's Data Analysis Software 7.0 and the antibody pairs were assessed for competitive binding. […] The competition ratio of antibody B to antibody A was calculated using the following equation: Competition Ratio (Antibody B to Antibody A)=[Binding Response (Antibody B-Antigen)]/[Binding Response (Antigen-Antibody A)]
Measured Quantity: competition ratio (Antibody B to Antibody A)
// print number alone

Would you please look over these solved cases?
[[record]]
binder = "DL312-SG1 (antibody, human IgG1, kappa, V domains shown, Variable regions of a previously reported anti-DLL3 antibody on SG1/SK1; Also used biotin-labelled as a first antibody) VH: EVKLVESGGGLVQPGGSLSLSCAASGFTFTDYYMNWVRQPPGKALEWLALIRNKANGYTTEYNASVKGRFTISRDNSQNILYLQMNALRAEDSATYYCARDSDGYYEYYFDYWGQGTTLTVSS VL: DIQMTQSPSSLSASLGERVSLTCRASQEISDYLSWLQQKPDGTIKRLIFAASTLDSGVPKRFSGSRSGSDFSLSISSLESEDFADYYCLQYASYPYTFGSGTKLEIKR"
val = 0.2

[[record]]
binder = "DLL3-6-SG1 (antibody, human IgG1, kappa, V domains shown, Variable regions of a previously reported anti-DLL3 antibody on SG1/SK1; Used as a second antibody only) VH: QVQLQESGPGLVKPSETLSLTCTVSGASISSFYWSWIRQPPGKGLEWIGYIYYSGTTNYNPSLKSRVTISVDTSKNQFSLKLSSVTAADTAVYYCARIAVAGFFFDYWGQGTLVTVSS VL: EIVLTQSPGTLSLSPGERATLSCRASQSVNKNYLAWYQQKPGQAPRLLIYGASSRATGIPDRFSGSGSGTDFTLTISRLEPEDFAVYYCQQYDRSPLTFGGGTKVEIKR"
val = 1.3

[[record]]
binder = "D30841AE05-SG1 (antibody, human IgG1, kappa, V domains shown, Humanized variant of DLA0841 with SG1 heavy and SK1 light constant regions; Labelled with NHS-PEG4-Biotin when used as the first (immobilized) antibody in the Octet assay) VH: QVQLKESGPALVKPTQTLTLTCTFSGFSLSSSYDMGWVRQAPGQGLEWMGTIYTGDYSTDYASWAKGRVTITADESTSTAYMELSSLRSEDTAVYYCARNTGYGYFGLWGQGTLVTVSS VL: DIQLTQSPSFLSASVGDRVTITCQSTESVYGSDWLSWYQQKPGQPPKLLIYQASNLEIGVPSRFSGSGSGTDFTLTINSLEAEDAATYYCQGYYSGYIYAFGGGTKVEIKR"
val = 1.1


Query block: Record request: competition ratio (Antibody B to Antibody A) value, item DLL3-4-SG1 (antibody, human IgG1, kappa, V domains shown, Variable regions of a previously reported anti-DLL3 antibody on SG1/SK1; Used as a second antibody only) VH: QVQLQESGPGLVKPSETLSLTCTVSGGSISSYYWSWIRQPPGKGLEWIGYVYYSGTTNYNPSLKSRVTISVDTSKNQFSLKLSSVTAADTAVYYCASIAVTGFYFDYWGQGTLVTVSS VL: EIVLTQSPGTLSLSPGERVTLSCRASQRVNNNYLAWYQQRPGQAPRLLIYGASSRATGIPDRFSGSGSGTDFTLTISRLEPEDFAVYYCQQYDRSPLTFGGGTKLEIKR
Result block: 1.3

Query block: If you can, please state the reported competition ratio (Antibody B to Antibody A) value of DL309-SG1 (antibody, human IgG1, kappa, V domains shown, Variable regions of a previously reported anti-DLL3 antibody on SG1/SK1; Also used biotin-labelled as a first antibody) VH: QVQLQQSGGDLMKPGASVKISCKAAGYTFSNYYIEWVKQRPGHGLEWIGEILPGSGSTTYNEKFKGKASFTADTSSNTAYMQLSSLTSEDSAVYYCARWGAREPGFPYWGQGTLVTVSA VL: DIVMTQSQKFMSTSVGDRVSVTCKASQNVGTNVAWYQQKPGQSPKALIYSASYRYSGVPDRFTGSGSGTDFTLTISNVQSEDLAEYFCQQYNNYPLTFGAGTKLELKR .
Result block: 1.5
